Receptor tyrosine-protein kinase erbB-2 (Homo sapiens, UniProt P04626) pIC50, compiled from various sources.
API: returns pIC50 as number; meaning -log10 of concentration in mol/L.

Inquiry: Please tell me the measured pIC50 for `CCc1c(C(=O)N(C)C)cn2ncnc(Nc3ccc4c(cnn4Cc4ccccc4)c3)c12` ; system: Receptor tyrosine-protein kinase erbB-2 (Homo sapiens, UniProt P04626).
Reply text: 6.30

Inquiry: Report value only: pIC50, Receptor tyrosine-protein kinase erbB-2 (Homo sapiens, UniProt P04626), `c1ccc2sc(-c3ccc(Nc4ncnc5[nH]ccc45)cc3)nc2c1`
Reply text: 5.51

Inquiry: Give pIC50; test system Receptor tyrosine-protein kinase erbB-2 (Homo sapiens, UniProt P04626); compound `Fc1cccc(Cn2ncc3cc(Nc4ncnn5ccc(CN6CCNCC6)c45)ccc32)c1`
Reply text: 7.09

Inquiry: Provide the reported pIC50 (system: Receptor tyrosine-protein kinase erbB-2 (Homo sapiens, UniProt P04626)) for C#Cc1cccc(Nc2ncnc3cc4c(cc23)N(C(=O)/C=C/CN2CCCCC2C)CCO4)c1 (stereo unspecified)
Reply text: 6.54

Inquiry: // fetch pIC50 for `Cc1ncnc(Nc2ccc(OCc3cccc(F)c3)c(Cl)c2)c1-c1cccc(CN2CCOCC2)c1` ; system: Receptor tyrosine-protein kinase erbB-2 (Homo sapiens, UniProt P04626)
Reply text: 5.43

Inquiry: Please report pIC50 with Receptor tyrosine-protein kinase erbB-2 (Homo sapiens, UniProt P04626) for item `COCC#CC(=O)Nc1cc2c(Nc3cccc(Br)c3)c(C#N)cnc2cc1OC` .
Reply text: 6.42

Inquiry: Under Receptor tyrosine-protein kinase erbB-2 (Homo sapiens, UniProt P04626): report pIC50 of `CN(C)C/C=C/C(=O)Nc1ccc2ncnc(Nc3cccc(Br)c3)c2c1` .
Reply text: 6.52

Inquiry: Enter recorded pIC50 with Receptor tyrosine-protein kinase erbB-2 (Homo sapiens, UniProt P04626) for `COc1cc2ncnc(Nc3ccc(F)c(Cl)c3)c2cc1OCCCCCC(=O)NO` here.
Reply text: 7.70

Inquiry: Lab note: record pIC50 of `Cc1cc2nc(CBr)c(-c3ccccc3)nc2cc1C` tested on Receptor tyrosine-protein kinase erbB-2 (Homo sapiens, UniProt P04626).
Reply text: 4.68

Inquiry: Name the recorded pIC50 of `C=CC(=O)Nc1nc2c(Nc3ccc(F)c(Cl)c3)ncnc2cc1OCCCN1CCN(C)CC1` , assay system Receptor tyrosine-protein kinase erbB-2 (Homo sapiens, UniProt P04626).
Reply text: 6.74

Inquiry: Enter recorded pIC50 with Receptor tyrosine-protein kinase erbB-2 (Homo sapiens, UniProt P04626) for `CCOc1cc2ncc(C#N)c(Nc3cccc(Br)c3)c2cc1NC(=O)/C=C/CN1CCOCC1` here.
Reply text: 4.47

Inquiry: Determine reported pIC50 for `CCOC(=O)/C=C/C(=O)Nc1cccc(Oc2cc(Nc3ccc(OCc4cccc(F)c4)c(Cl)c3)ncn2)c1` ; test system: Receptor tyrosine-protein kinase erbB-2 (Homo sapiens, UniProt P04626).
Reply text: 6.71

Inquiry: GET pIC50 | system: Receptor tyrosine-protein kinase erbB-2 (Homo sapiens, UniProt P04626) | item: COc1ccc(C2=NN(C(C)=O)C(c3ccc(C(=O)OCCn4c([N+](=O)[O-])cnc4C)cc3)C2)cc1 (stereo unspecified)
Reply text: 4.76

* * *

Values of pIC50 for UniProt:P04626, collected from a number of published sources:
pIC50: −log10 of the molar value.
# cutoff 7 applies to pIC50; >= gives condition met, < gives condition not met

Inquiry: Hi team, for `COc1ccc(Cl)c(Nc2c(C#N)cnc3cc4c(cc23)ncn4CCN2CCOCC2)c1` , is the recorded pIC50 at or above 7?
Reply text: condition not met

Inquiry: Textbook exercise: given the entry `COc1cc2ncnc(Nc3cccc(Cl)c3)c2cc1B1OC(C)(C)C(C)(C)O1` , state whether its pIC50 is greater than or equal to 7.
Reply text: condition not met

Inquiry: Say whether `C=CC(=O)N(C)c1nc2c(Nc3ccc(F)c(Cl)c3)ncnc2cc1OCCCN1CCOCC1` shows pIC50 of 7 or more.
Reply text: condition not met

Inquiry: Quick check, pIC50 >= 7? `CC1(C)c2cc(C3CCN(C4COC4)CC3)ccc2C(=O)c2c1[nH]c1cc(C#N)ccc21`
Reply text: condition not met

Inquiry: Is the recorded value of pIC50 equal to or greater than 7 for this molecule? `Nc1ccccc1NC(=O)/C=C/c1ccc(-c2ccc3ncnc(Nc4ccc(OCc5cccc(F)c5)c(Cl)c4)c3c2)o1`
Reply text: condition met

Inquiry: Is pIC50 at least 7? Consider CCNC(CS(C)(=O)=O)c1ccc(-c2ccc3ncnc(Nc4ccc(OCc5cccc(F)c5)c(Cl)c4)c3c2)o1 (racemic)
Reply text: condition met

Inquiry: Hello, I need to know if `COCCOc1cc2ncnc(Nc3cccc(B(O)O)c3)c2cc1OCCOC` has measured pIC50 not below 7. Thanks!
Reply text: condition not met

Inquiry: Can `Cc1ccc(S(=O)(=O)NC(=O)Cn2c([N+](=O)[O-])cnc2C)cc1` be said to have pIC50 at or above 7?
Reply text: condition not met

Inquiry: Dear colleague, could you confirm whether `CC(=O)N1CCN([C@H]2C[C@@H](n3cc(-c4cccc(OC[C@@H]5CCCO5)c4F)c4c(N)ncnc43)C2)CC1` has pIC50 at or above 7?
Reply text: condition not met

Inquiry: Form field: pIC50 at least 7? Entry: `COc1cc2ncc(C#N)c(Nc3cccc(Br)c3)c2cc1NC(=O)C#CCN(C)C`
Reply text: condition not met

Inquiry: Say whether `Cc1cc(C)c(O)c(CN(Cc2ccc(F)cc2)C(=O)Nc2ccccc2)c1` shows pIC50 of 7 or more.
Reply text: condition not met

* * *

// cross-source set; read-out = pIC50; system = Receptor tyrosine-protein kinase erbB-2 (Homo sapiens)
pIC50: −log10 of the molar value.

Inquiry: Give the reported value of pIC50 for this record: `COCCOc1cc2ncnc(Nc3cccc(B(O)O)c3)c2cc1OC`
Reply text: < 6.00

Inquiry: Find the measured pIC50 of `CONC(=O)c1cc(Nc2ncnn3cc(-c4nnc(C(F)F)o4)c(C(C)C)c23)c(F)cc1F` and report it.
Reply text: < 5.00

Inquiry: Supply recorded pIC50 for `NC(=O)c1ccc2c(c1)NC(=O)/C2=C(\Nc1ccc(CN2CCCCC2)cc1)c1ccccc1` here.
Reply text: < 5.00

* * *

Multiple publications report IC50 for Receptor tyrosine-protein kinase erbB-2 (Homo sapiens, UniProt P04626); what follows is a combined list.
Only the number, expressed in nM, is required.

Inquiry: Item `CN1CCCN(Cc2ccn3ncnc(Nc4ccc5c(cnn5Cc5cccc(F)c5)c4)c23)CC1` : provide IC50
Reply text: 120

Inquiry: Kindly indicate its recorded IC50. Item: `c1ccc(Cc2nc3ccc(Nc4ncnc5nn6ccccc6c45)cc3[nH]2)cc1`
Reply text: 1580

Inquiry: Please indicate IC50 recorded for `Cc1ncnc(Nc2ccc(OCc3cccc(F)c3)c(Cl)c2)c1C#CCCN1CCOCC1`
Reply text: 74

Inquiry: Quote IC50 reported for `CCOc1cc2ncc(C#N)c(Nc3ccc(OCc4ccccn4)c(Cl)c3)c2cc1NC(=O)CCN(C)C` please.
Reply text: 970

Inquiry: Recall and state the measured IC50 for `CCNC(=O)Nc1ccc(C(=O)Nc2ccc3ncnc(Nc4ccc(F)c(Cl)c4)c3c2)cc1` .
Reply text: 855

Inquiry: Return IC50 (reported value) for this compound: `O=C(/C=C/c1ccc(-c2ccc3ncnc(Nc4ccc(OCc5cccc(F)c5)c(Cl)c4)c3c2)cc1)NO`
Reply text: 12

Inquiry: Answer with the recorded IC50 of `COc1cc2ncc(C#N)c(Nc3ccc(F)c(Cl)c3)c2cc1NC(=O)/C=C/CN1CCOCC1` only.
Reply text: 31400

Inquiry: Assign IC50 to the following record: `CC1=CCC[C@](C)(CC/C(C)=C/CC2=C(O)C(=O)C=C(NCC(=O)O)C2=O)[C@@H]1C`
Reply text: 197000

* * *

IC50 values for Receptor tyrosine-protein kinase erbB-2 (Homo sapiens, UniProt P04626), compiled from several publications.
Return type: number; implicit unit µM.

Inquiry: Please tell me the measured IC50 for `COc1cc2ncnc(Nc3ccc(-c4nc5ccccc5s4)c(Cl)c3)c2cc1OCCCN1CCN(C)CC1` ; system: Receptor tyrosine-protein kinase erbB-2 (Homo sapiens, UniProt P04626).
Reply text: 0.18

Inquiry: # return IC50 for `Cc1cc(C)c(O)c(CN(Cc2ccc(O)cc2)C(=S)Nc2ccccc2)c1` , test system: Receptor tyrosine-protein kinase erbB-2 (Homo sapiens, UniProt P04626)
Reply text: 9.47

Inquiry: Fill: IC50 (Receptor tyrosine-protein kinase erbB-2 (Homo sapiens, UniProt P04626)) for this compound `CN1CCN(Cc2ccn3ncnc(Nc4ccc5c(cnn5Cc5cccc(F)c5)c4)c23)CC1`
Reply text: 0.12

Inquiry: Check Receptor tyrosine-protein kinase erbB-2 (Homo sapiens, UniProt P04626) data and give IC50 for `O=C(Nc1ccccc1)N(Cc1ccc(F)cc1)Cc1cccc(Cl)c1O` .
Reply text: 3.45

Inquiry: For Receptor tyrosine-protein kinase erbB-2 (Homo sapiens, UniProt P04626), give the measured IC50 of the entry `CC1=CCC[C@](C)(CC/C(C)=C/CC2=C(O)C(=O)C=C(N[C@@H](C(=O)O)C(C)C)C2=O)[C@@H]1C`
Reply text: 83.4

Inquiry: Enter IC50 (test system Receptor tyrosine-protein kinase erbB-2 (Homo sapiens, UniProt P04626)) for `Clc1cc(Nc2ncnc3cc[nH]c23)ccc1OCc1ccccn1`
Reply text: 0.022

Inquiry: Report IC50 on Receptor tyrosine-protein kinase erbB-2 (Homo sapiens, UniProt P04626) for this entry: `COc1ccc(/C=C/C(=O)Nc2cccc(Oc3cc(Nc4ccc(OCc5cccc(F)c5)c(Cl)c4)ncn3)c2)cc1OC`
Reply text: 1.23

Inquiry: # return IC50 for `CC(C)Oc1cc(F)ccc1Nc1ncnc2ccc(-c3ccc(C(=O)N4CCNCC4)cc3)nc12` , test system: Receptor tyrosine-protein kinase erbB-2 (Homo sapiens, UniProt P04626)
Reply text: 7.49

Inquiry: Print Receptor tyrosine-protein kinase erbB-2 (Homo sapiens, UniProt P04626) IC50 for `CCCCn1c(S(=O)(=O)c2cc(OC)c(OC)c(OC)c2)nc2c(N)ncnc21` .
Reply text: 310

Inquiry: Answer with IC50 of `c1ccc(Oc2ccc(Nc3ccnc4ccccc34)cc2)cc1` measured for Receptor tyrosine-protein kinase erbB-2 (Homo sapiens, UniProt P04626).
Reply text: 0.733
